- ASSAY INFO: Pharmacokinetic evaluation in mice (2), plasma
- Type: in vivo, Balb/c male mice
- CONDITION CONTEXT: male, Balb/c, 10 mg/kg; mouse plasma, PO 10 mpk
REPORTED ENDPOINT: half-life (min)
Your answer should be a plain number; it is taken to be in min.

// fetch half-life given entry "Cc1cc2ncnn2cc1Nc1ncc2c(n1)n(N1CC3CCC(C1)O3)c(=O)n2C"
51

###

- ASSAY INFO: Pharmacokinetic evaluation in Beagle dogs
- Assay type: in vivo, Male Beagle dogs
- CONDITION CONTEXT: male, 1 mg/kg; Beagle dog plasma, IV 1 mpk; read-out: Vdss
# Vd per record follows
Only the number, expressed in L/kg, is required.

COMPOUND SMILES: Cc1cc2nncn2cc1Nc1ncc2c(n1)n(N1CC3CCC(C1)O3)c(=O)n2C
Vd / L/kg: 1.58

Look up Vd of "Cc1cc2ncnn2cc1Nc1ncc2c(n1)n(N1CC3CCC(C1)O3)c(=O)n2C" and report it.
1.87
